All figures here come from paper PMC2071910.

Assay procedure: In vitro metabolism in human lung precision-cut tissue slices, HPLC with UV detection
Type: in vitro ADME
Protocol conditions: tissue extract, 2 h, 25 μM, mean ± SD n = 9
Metric: Total amount in human lung tissue slices: Parent compound (nmol/vial)

Some solved cases for reference:
1. CCCC1O[C@@H]2C[C@H]3[C@@H]4CCC5=CC(=O)C=C[C@]5(C)[C@H]4[C@@H](O)C[C@]3(C)[C@]2(C(=O)CO)O1 (stereo partly shown) [Budesonide, budesonide]; 7.32
2. CCC(=O)O[C@]1(C(=O)SCF)[C@H](C)C[C@H]2[C@@H]3C[C@H](F)C4=CC(=O)C=C[C@]4(C)[C@@]3(F)[C@@H](O)C[C@@]21C [Fluticasone propionate, fluticasone propionate]; 8.42

P = CC(C)C(=O)OCC(=O)[C@@]12O[C@H](C3CCCCC3)O[C@@H]1C[C@H]1[C@@H]3CCC4=CC(=O)C=C[C@]4(C)[C@H]3[C@@H](O)C[C@@]12C [Ciclesonide, ciclesonide]
Q = CCC(=O)OCC(=O)[C@@]1(OC(=O)CC)[C@@H](C)C[C@H]2[C@@H]3CCC4=CC(=O)C=C[C@]4(C)[C@@]3(Cl)[C@@H](O)C[C@@]21C [Beclomethasone dipropionate, beclomethasone dipropionate]
Q. Total amount in human lung tissue slices: Parent compound comparison. Which is larger, P or Q ? Let me know the label of the one you choose.
A. P
